Reference source: the supplement of paper PMC10307832

# relative viability per record follows
system: LXF-289; assay: relative viability (nuclei count vs DMSO), 5 days (fraction); higher = more cells survive; settings: first compound 0.1581 µM
Give the figure by itself; no unit, no explanation.

Use the examples below as a reference point.
{"columns": ["COMPOUND", "SYSTEM", "relative viability"],
 "data": [
  ["COc1cc2nccc(Oc3ccc(NC(=O)Nc4cc(C)on4)c(Cl)c3)c2cc1OC [Tivozanib] + O=C(CCCCCCC(=O)Nc1ccccc1)NO [Vorinostat] (partner 1 µM)", "LXF-289", 0.939],
  ["Nc1ccn([C@@H]2O[C@H](CO)[C@@H](O)[C@@H]2O)c(=O)n1 [Cytarabine] + CC(=O)Nc1cccc(-n2c(=O)n(C3CC3)c(=O)c3c(Nc4ccc(I)cc4F)n(C)c(=O)c(C)c32)c1 [Trametinib] (partner 0.02 µM)", "LXF-289", 0.428],
  ["Nc1ccn([C@@H]2O[C@H](CO)[C@@H](O)[C@@H]2O)c(=O)n1 [Cytarabine] + Cc1cc(Nc2cc(N3CCN(C)CC3)nc(Sc3ccc(NC(=O)C4CC4)cc3)n2)n[nH]1 [Tozasertib] (partner 0.1 µM)", "LXF-289", 0.0999]
]}

Kindly consider the entry below.
-- ask I would be grateful if you could share the reported relative viability for Nc1ccn([C@@H]2O[C@H](CO)[C@@H](O)[C@@H]2O)c(=O)n1 [Cytarabine] + CC1(C)CCC(c2ccc(Cl)cc2)=C(CN2CCN(c3ccc(C(=O)NS(=O)(=O)c4ccc(N[C@H](CCN5CCOCC5)CSc5ccccc5)c(S(=O)(=O)C(F)(F)F)c4)cc3)CC2)C1 [Navitoclax] (partner 0.5 µM) .
-- reply 0.395

###

# relative viability per record follows
tested on: NCI-H2087; assay: relative viability (nuclei count vs DMSO), 5 days (fraction); higher = more cells survive; conditions: first compound 0.005 µM
Give the figure by itself; no unit, no explanation.

Use the examples below as a reference point.
{"columns": ["COMPOUND", "relative viability"],
 "data": [
  ["COc1cc2nccc(Oc3ccc(NC(=O)Nc4cc(C)on4)c(Cl)c3)c2cc1OC [Tivozanib] + COc1cc2c(Oc3ccc(NC(=O)C4(C(=O)Nc5ccc(F)cc5)CC4)cc3F)ccnc2cc1OCCCN1CCOCC1 [Foretinib] (partner 0.25 µM)", 1.04],
  ["COc1cc2nccc(Oc3ccc(NC(=O)Nc4cc(C)on4)c(Cl)c3)c2cc1OC [Tivozanib] + C[C@@H](Oc1cc(-c2cnn(C3CCNCC3)c2)cnc1N)c1c(Cl)ccc(F)c1Cl [Crizotinib] (partner 1 µM)", 0.797],
  ["COc1cc2nccc(Oc3ccc(NC(=O)Nc4cc(C)on4)c(Cl)c3)c2cc1OC [Tivozanib] + CCNC(=O)c1noc(-c2cc(C(C)C)c(O)cc2O)c1-c1ccc(CN2CCOCC2)cc1 [Luminespib] (partner 0.01 µM)", 0.135],
  ["COc1cc2nccc(Oc3ccc(NC(=O)Nc4cc(C)on4)c(Cl)c3)c2cc1OC [Tivozanib] + O=C(c1cc(Cc2n[nH]c(=O)c3ccccc23)ccc1F)N1CCN(C(=O)C2CC2)CC1 [Olaparib] (partner 8 µM)", 0.542],
  ["Nc1ccn([C@@H]2O[C@H](CO)[C@@H](O)[C@@H]2O)c(=O)n1 [Cytarabine] + Cc1cc(Nc2cc(N3CCN(C)CC3)nc(Sc3ccc(NC(=O)C4CC4)cc3)n2)n[nH]1 [Tozasertib] (partner 0.1 µM)", 0.254]
]}

Kindly consider the entry below.
-- ask I would be grateful if you could share the reported relative viability for Nc1ccn([C@@H]2O[C@H](CO)[C@@H](O)[C@@H]2O)c(=O)n1 [Cytarabine] + CC1(C)CCC(c2ccc(Cl)cc2)=C(CN2CCN(c3ccc(C(=O)NS(=O)(=O)c4ccc(N[C@H](CCN5CCOCC5)CSc5ccccc5)c(S(=O)(=O)C(F)(F)F)c4)cc3)CC2)C1 [Navitoclax] (partner 0.5 µM) .
-- reply 0.973
